meta.source: patent US10030016B2

test system: phospho-akt (Thr308) in PC-3 cells; experiment: Inhibition of phospho-akt (Thr308) in PC-3 cells, MSD phospho-akt 308 ELISA kit; type: cell-based; conditions: Homo sapiens; inhibition of P308 Akt in PC-3 cells using MSD, 2 hours, no serum; read-out: EC50
# reported EC50; entries follow

Known EC50 results, listed for orientation:
molecule="CC(C)(O)Cn1cc(-c2ccc(CNc3ncc(C(F)(F)F)cc3C(=O)Nc3ccc(F)cc3)cc2)c2c(N)ncnc21 [Example 405]" result="1000 to 10000 nM"
molecule="C[C@H](NC(=O)c1cc(C#N)cnc1NCc1ccc(-c2ccc(N)nc2)cc1)c1ccc(F)cc1 [Example 106]" result="< 1000 nM"
molecule="Nc1ncnn2ccc(-c3ccc(CNc4ncc(C(F)(F)F)cc4C(=O)NCc4ccc(F)c(F)c4)cc3)c12 [Example 176]" result="1000 to 10000 nM"
molecule="Nc1n[nH]c2ncc(-c3ccc(CNc4ncc(C(F)(F)F)cc4C(=O)NC4CCOC4)cc3)cc12 (stereo not shown) [Example 305]" result="1000 to 10000 nM"
molecule="C[C@H](NC(=O)c1cc(C#N)cnc1NCc1ccc(-c2cnc3[nH]nc(N)c3n2)cc1)c1ccc(F)cc1 [Example 183]" result="< 1000 nM"

Supply reported EC50 belonging to this molecule: C[C@H](NC(=O)c1cccnc1NCc1ccc(-c2cnc3[nH]c(=O)[nH]c3c2)cc1)c1ccc(F)c(F)c1 [Example 366]
< 1000 nM

Supply reported EC50 belonging to this molecule: N#Cc1cnc(NCc2ccc(-c3c[nH]c4ncnc(N)c34)cc2)c(-c2nccs2)c1 [Example 352]
> 10000 nM

###

# reported pEC50; entries follow
test system: phospho-akt (Thr308) in PC-3 cells; assay: Inhibition of phospho-akt (Thr308) in PC-3 cells, MSD phospho-akt 308 ELISA kit; assay type: cell-based; details: Homo sapiens; inhibition of P308 Akt in PC-3 cells using MSD, 2 hours, no serum; read-out: EC50
pEC50: −log10 of the molar value.

Known pEC50 results, listed for orientation:
compound="C[C@H](NC(=O)c1cc(C#N)cnc1NCc1ccc(-c2cnc(N)c(CCCCO)n2)cc1)c1ccc(F)cc1 [Example 90]" study_target="phospho-akt (Thr308) in PC-3 cells" metric=pEC50 result="> 6.00"
compound="Nc1n[nH]c2ncc(-c3ccc(CNc4ncc(C(F)(F)F)cc4C(=O)Nc4ccncn4)cc3)cc12 [Example 303]" study_target="phospho-akt (Thr308) in PC-3 cells" metric=pEC50 result="5.00 to 6.00"
compound="C[C@H](NC(=O)c1cc(C#N)cnc1NCc1ccc(-c2ncnc(N)c2F)cc1)c1ccc(F)cc1 [Example 101]" study_target="phospho-akt (Thr308) in PC-3 cells" metric=pEC50 result="< 5.00"
compound="Cn1cnc(CNC(=O)c2cc(C(F)(F)F)cnc2NCc2ccc(-c3cnc4[nH]nc(N)c4c3)cc2)c1 [Example 270]" study_target="phospho-akt (Thr308) in PC-3 cells" metric=pEC50 result="5.00 to 6.00"
compound="C[C@H](NC(=O)c1nc(C#N)cnc1NCc1ccc(-c2cnc(N)c(CCC3CCCNC3)n2)cc1)c1ccc(F)c(F)c1 (stereo partly shown) [Example 81]" study_target="phospho-akt (Thr308) in PC-3 cells" metric=pEC50 result="5.00 to 6.00"
compound="C[C@H](NC(=O)c1cc(C#N)cnc1NCc1ccc(-c2ccc(N)nc2)c(F)c1)c1ccc(F)cc1 [Example 129]" study_target="phospho-akt (Thr308) in PC-3 cells" metric=pEC50 result="5.00 to 6.00"

Now let's try a different one.
Supply reported pEC50 belonging to this compound: Nc1n[nH]c2ncc(-c3ccc(CNc4ncc(C(F)(F)F)cc4C(=O)NCC4CCCC4)cc3)cc12 [Example 264]
5.00 to 6.00
